These measurements were taken from patent US8877769B2.

I'd be grateful if you could share measured IC50 for these entries.
# EXPERIMENTAL_SYSTEM: Rat FAAH (Rattus norvegicus, UniProt P97612)
# Sequence (P97612 whole entry): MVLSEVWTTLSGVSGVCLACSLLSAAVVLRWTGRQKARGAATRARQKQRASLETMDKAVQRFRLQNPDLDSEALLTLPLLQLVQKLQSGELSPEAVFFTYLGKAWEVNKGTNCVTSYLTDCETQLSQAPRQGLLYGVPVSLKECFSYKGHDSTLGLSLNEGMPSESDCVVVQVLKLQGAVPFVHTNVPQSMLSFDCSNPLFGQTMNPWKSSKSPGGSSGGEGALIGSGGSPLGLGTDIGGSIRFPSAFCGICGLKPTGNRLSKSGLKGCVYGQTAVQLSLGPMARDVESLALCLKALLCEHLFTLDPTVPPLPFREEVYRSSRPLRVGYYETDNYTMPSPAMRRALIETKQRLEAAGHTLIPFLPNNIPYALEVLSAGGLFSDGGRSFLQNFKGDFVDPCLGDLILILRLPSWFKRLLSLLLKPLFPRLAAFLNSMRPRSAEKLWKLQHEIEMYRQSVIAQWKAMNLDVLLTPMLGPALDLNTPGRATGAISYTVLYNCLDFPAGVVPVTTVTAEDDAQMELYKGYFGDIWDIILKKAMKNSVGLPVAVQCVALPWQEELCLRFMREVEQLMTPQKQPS
# PROCEDURE_SUMMARY: Assay Method 2: FAAH assay, 3H-anandamide hydrolysis in cell homogenate
# ASSAY_SETUP: average of results obtained, > value = solubility limit or highest concentration tested
One number for each entry, in µM.

Consider the following illustrative entries.
{"MOLECULE": "O=C(Nc1cccn2ccnc12)N1CCN(Cc2ccc3c(c2)OC(F)(F)O3)CC1 [Example 54]", "IC50, µM": 0.35}
{"MOLECULE": "N#Cc1ccc(Oc2cccc(CN3CCN(C(=O)Nc4noc5ncccc45)CC3)c2)cc1 [Example 32]", "IC50, µM": 2.3}
{"MOLECULE": "O=C(Nc1cccc2nccn12)N1CCN(Cc2ccc(OC(F)(F)F)c(Cl)c2)CC1 [Example 70]", "IC50, µM": 0.038}

Please find the next molecule below.
Documented IC50 of O=C(Nc1cnc2cccnn12)N1CCN(Cc2ccc3c(c2)OC(F)(F)O3)CC1 [Example 3] : 0.16
